Ref: patent US20050137230A1

TARGET OR TEST SYSTEM: factor VIIa (Homo sapiens)
Sequence (P08709 213-466 limits assumed): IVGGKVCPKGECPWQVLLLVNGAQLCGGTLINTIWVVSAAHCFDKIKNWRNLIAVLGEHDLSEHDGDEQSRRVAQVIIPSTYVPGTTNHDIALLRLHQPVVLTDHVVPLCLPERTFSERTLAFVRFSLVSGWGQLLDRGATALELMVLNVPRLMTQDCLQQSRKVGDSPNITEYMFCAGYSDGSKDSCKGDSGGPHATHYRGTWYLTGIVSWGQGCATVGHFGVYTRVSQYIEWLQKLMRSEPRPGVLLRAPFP
Sequence (P08709 61-212 partner limits assumed): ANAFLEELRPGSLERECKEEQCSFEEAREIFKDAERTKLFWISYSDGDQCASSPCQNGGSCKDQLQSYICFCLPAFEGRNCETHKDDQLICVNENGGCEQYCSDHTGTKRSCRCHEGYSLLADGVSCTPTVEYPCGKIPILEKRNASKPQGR
MEASURED PROPERTY: IC50 (nM)

[1] CS(=O)(=O)c1ccccc1-c1ccc(NC(=O)[C@@H](Cc2ccccc2)NC(=O)Nc2ccc(Cl)cc2)cc1
[2] CCCC[C@@H](NC(=O)Nc1ccccc1)C(=O)Nc1ccc(-c2ccccc2S(C)(=O)=O)cc1
Would you let me know which has the greater IC50 value, 1 or 2 ? Indicate your choice by writing its label. 2
